Target: Adenosine receptor A1 (Homo sapiens) (UniProt P30542)
Sequence (whole entry): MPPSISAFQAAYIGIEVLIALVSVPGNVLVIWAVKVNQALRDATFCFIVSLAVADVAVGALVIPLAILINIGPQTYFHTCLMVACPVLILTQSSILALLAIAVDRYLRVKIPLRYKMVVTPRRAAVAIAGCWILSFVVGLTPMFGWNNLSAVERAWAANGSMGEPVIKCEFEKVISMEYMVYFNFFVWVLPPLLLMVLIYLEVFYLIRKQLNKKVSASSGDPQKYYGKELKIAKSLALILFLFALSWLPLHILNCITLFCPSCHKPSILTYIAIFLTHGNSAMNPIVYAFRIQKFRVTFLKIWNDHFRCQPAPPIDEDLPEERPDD
Test: Displacement of [3H]DPCPX from human adenosine A1 receptor expressed in CHO cells at 1 uM
Type: cell-based
readout: Activity (%)

>>> reading("CCCCCC(=O)Nc1nc(-c2ccccc2)cc(-c2ccccc2)n1")
28

a. Cc1ccc(C(=O)Nc2nc(-c3ccccc3)cc(-c3ccccc3)n2)cc1
b. O=C(Nc1nc(-c2ccccc2)cc(-c2ccccc2)n1)c1ccc(Cl)c(Cl)c1
Would you let me know which has the greater Activity value, a or b ? // return label of chosen record
a
(a: 37%, b: 0%)

P. COc1ccc(C(=O)Nc2cc(-c3ccccc3)nc(-c3ccccc3)n2)cc1
Q. O=C(Nc1nc(-c2ccccc2)cc(-c2ccccc2)n1)c1ccc(Cl)cc1
Between P and Q , whose measured Activity reads higher? // return label of chosen record
P

Recorded values, source ChEMBL document CHEMBL1149279.
